System: 855422-203-R-J1-PDC complex spheroid viability
method: Anticancer human tumor 855422-203-R-J1-PDC patient-derived bladder carcinoma cell line growth inhibition [POLQ]; active means viability on the fitted dose curve at most 10% of control; inactive means the rest
measurement conditions: second compound 0.0316 µM; first compound 10 µM
Reply using exactly one outcome from y for active, n for inactive

Example entries begin here.
Nc1ccn(C2OC(CO)C(O)C2(F)F)c(=O)n1 (stereo unspecified) + Nc1ccc(C#CCN(C(=O)Cc2ncc(C(F)(F)F)cc2C(F)(F)F)c2ccc(F)cc2)nn1 ... n
C#Cc1c(F)ccc2cc(O)cc(-c3ncc4c(N5CC6CCC(C5)N6)nc(OCC56CCCN5CC(F)C6)nc4c3F)c12 (stereo unspecified) + COC1C(OC(N)=O)C(O)C(Oc2ccc3c(O)c(NC(=O)c4ccc(O)c(CC=C(C)C)c4)c(=O)oc3c2C)OC1(C)C ... n

Q: # outcome recorded in this test, key = O=C(Nc1ccc(O)c(NS(=O)(=O)c2ccc(F)cc2)c1)c1ccc(-c2ccccc2)cc1 + Cc1cccc(N(C)C(=O)C2C(O)CCN2c2nc(C)cc(C(F)(F)F)c2C#N)c1
A: n

Q: Would you mind telling me which call this test gave CCCS(=O)(=O)Nc1ccc(F)c(C(=O)c2c[nH]c3ncc(-c4ccc(Cl)cc4)cc23)c1F + Cc1cccc(N(C)C(=O)C2C(O)CCN2c2nc(C)cc(C(F)(F)F)c2C#N)c1 ?
A: y

Q: Fill in: this test's call for CCc1cc2c(N3CCc4c(cc(Cn5ccnc5)cc4-c4cn(C)nc4C(F)(F)F)C3=O)ccnc2c(OC)n1 + COC1C(OC(N)=O)C(O)C(Oc2ccc3c(O)c(NC(=O)c4ccc(O)c(CC=C(C)C)c4)c(=O)oc3c2C)OC1(C)C is ___
A: n

Q: Just curious, what result did C#Cc1c(F)ccc2cc(O)cc(-c3ncc4c(N5CC6CCC(C5)N6)nc(OCC56CCCN5CC(F)C6)nc4c3F)c12 (stereo unspecified) + Cc1cccc(N(C)C(=O)C2C(O)CCN2c2nc(C)cc(C(F)(F)F)c2C#N)c1 get here?
A: n

* * *

Tested on: 855422-203-R-J1-PDC complex spheroid viability
method: Anticancer human tumor 855422-203-R-J1-PDC cell line growth inhibition [POLQ];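 further: spheroids exposed to compounds for seven days before readout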
measurement conditions: second compound 10 µM; first compound 1 µM; hits give low values
Reported viability, T/C by item:
Entry rule: numbers only, all in %.

C=CCn1c(=O)c2cnc(Nc3ccc(N4CCN(C)CC4)cc3)nc2n1-c1cccc(C(C)(C)O)n1 + Nc1ccc(C#CCN(C(=O)Cc2ncc(C(F)(F)F)cc2C(F)(F)F)c2ccc(F)cc2)nn1 ... 161
CC(C)n1c(=O)n(C)c2cnc3cc(F)c(-c4ccc(OCCCN5CCCCC5)nc4)cc3c21 + Nc1ccc(C#CCN(C(=O)Cc2ncc(C(F)(F)F)cc2C(F)(F)F)c2ccc(F)cc2)nn1 ... 100
CC1COCCN1c1cc(C2(S(C)(=N)=O)CC2)nc(-c2ccnc3[nH]ccc23)n1 (stereo not drawn) + Cc1cccc(N(C)C(=O)C2C(O)CCN2c2nc(C)cc(C(F)(F)F)c2C#N)c1 ... 97.5

Q: Param item = C#Cc1c(F)ccc2cc(O)cc(-c3ncc4c(N5CC6CCC(C5)N6)nc(OCC56CCCN5CC(F)C6)nc4c3F)c12 (stereo not drawn) + COC1C(OC(N)=O)C(O)C(Oc2ccc3c(O)c(NC(=O)c4ccc(O)c(CC=C(C)C)c4)c(=O)oc3c2C)OC1(C)C ; retrieve measured viability, T/C.
A: 117

Q: I would be grateful if you could share the reported viability, T/C for Nc1ccn(C2OC(CO)C(O)C2(F)F)c(=O)n1 (stereo not drawn) + Cc1cccc(N(C)C(=O)C2C(O)CCN2c2nc(C)cc(C(F)(F)F)c2C#N)c1 .
A: 12.7
